- test_system: T1, cynomolgus monkey OX40 protein (Novoprotein, #CB17) (cynomolgus monkey)
- T1 construct: Bought recombinant protein; also called cyno OX40
- protocol_text: BLI, antibody on ProA sensor, 1:1 global fit
reported_property: kon (M⁻¹ s⁻¹)
Response body: numeric value in M⁻¹ s⁻¹, unit text excluded.

Value lookup for kon; key = PR002063 (antibody, human IgG1, V domains shown, no light chain; also called anti-OX40 HCAb antibody) VH: EVQLLESGGGLVQPGGSLRLSCAASGFTFSSYAMSWVRQAPGRGLEWVSAISGGGGSTFYADSVRGRFTISRDNSKNTLYLQMSSLRAEDTAVYYCANGMTGTTDVDYWGQGTRVTVSS
36000

Value lookup for kon; key = PR002077 (antibody, human IgG1, V domains shown, no light chain; also called anti-OX40 HCAb antibody) VH: EVQLLESGGGLVQPGGSLRLSCAASGFTFSSYAMSWVRQAPGKGLEWVSAISGRGNITFYADSVRGRFTISRDNSKNTLYLQMNSLRAEDTAVYYCANGITGTTDVDYWGQGTLVTVSS
32700

Value lookup for kon; key = PR002066 (antibody, human IgG1, V domains shown, no light chain; also called anti-OX40 HCAb antibody) VH: EVQLLESGGGLVQPGGSLRLSCIASGFTFSSYAMSWVRQAPGKGLEWVSAISGRGGSTFYADSVRGRFTISRDNSKNTLYLQMNSLRAEDTAVYYCANGMTGTTDVDYWGQGTQVTVSS
42700

Value lookup for kon; key = PR002067 (antibody, human IgG1, V domains shown, no light chain; also called anti-OX40 HCAb antibody) VH: EVQLLESGGGLVQPGGSLRLSCAASGFTFSSYAMSWVRQAPGKGLEWVSAISGRGGSTFYADSVRGRFTISRDNSKNTLYLQMNSLRAEDTAMYYCVDGTTGTTDVDYWGQGTLVTVSS
24800

Value lookup for kon; key = PR002065 (antibody, human IgG1, V domains shown, no light chain; also called anti-OX40 HCAb antibody) VH: EVQLVESGGGLVQPGGSLRLSCAASGFTFSSYAMSWVRQAPGKGLEWVSAISGRGDITFYADSVRGRFTISRDNSKNTLYLQMNSLRAEDTALYYCANGMTGSTDVDFWGQGTLVTVSS
30800
